# assay.system: GABA-A receptor
# protocol.summary: 35S-TBPS binding assay (GABAA receptor binding ability test)
# condition.notes: rat cerebral cortex cell membrane, 5 μM GABA, 2 nM 35S-TBPS; read-out: 35S-TBPS bindng test: IC50 on inhibiting the TBPS binding activity
assay.endpoint: log10 IC50 (log10 of the value in nM)
Would you kindly interpret these values as log10 of IC50 expressed in nM?

Observe how each entry below is paired with its result.
{"columns": ["molecule", "assay.system", "endpoint.result"],
 "data": [
  ["C[C@@]1(O)CC[C@H]2[C@H](CC[C@@H]3[C@@H]2CC[C@@]2(C)[C@H]3[C@@H]3C[C@@H]3[C@@H]2C(=O)Cn2nnc3cc(F)ccc32)C1 [Example 93A]", "GABA-A receptor", 0.48],
  ["C[C@@]1(O)CC[C@H]2[C@H](CC[C@@H]3[C@@H]2CC[C@]2(C)[C@@H](C(=O)COCC4(C#N)CC4)CC[C@@H]32)C1", "GABA-A receptor", 1.58],
  ["C[C@@H]1C[C@H](C(=O)Cn2ccc(C(F)(F)F)n2)[C@@]2(C)CC[C@H]3[C@@H](CC[C@@H]4C[C@](C)(O)CC[C@@H]43)[C@H]12", "GABA-A receptor", 0.90],
  ["C[C@@]1(O)CC[C@H]2[C@H](CC[C@@H]3[C@@H]2CC[C@@]2(C)[C@H]3[C@H](C3CC3)C[C@@H]2C(=O)Cn2ncnn2)C1", "GABA-A receptor", 1.33],
  ["CC[C@@H]1C[C@H](C(=O)Cn2nnc(C)n2)[C@@]2(C)CC[C@H]3[C@@H](CC[C@@H]4C[C@](C)(O)CC[C@@H]43)[C@H]12", "GABA-A receptor", 1.43]
]}

Please tell me: log10 IC50 of C[C@@]1(O)CC[C@H]2[C@H](CC[C@@H]3[C@@H]2CC[C@@]2(C)[C@H]3[C@@H]3C[C@@H]3[C@@H]2C(=O)Cn2cc(C#N)cn2)C1 , system GABA-A receptor?
1.39

Input C[C@@]1(O)CC[C@H]2[C@H](CC[C@@H]3[C@@H]2CC[C@@]2(C)[C@H]3[C@@H]3C[C@@H]3[C@@H]2C(=O)Cn2ncnn2)C1
1.33

Input C[C@@H]1C[C@H](C(=O)Cn2ccnn2)[C@@]2(C)CC[C@H]3[C@@H](CC[C@@H]4C[C@](C)(O)CC[C@@H]43)[C@H]12
1.39

Input COc1ccc2nn(CC(=O)[C@H]3[C@H]4C[C@H]4[C@H]4[C@@H]5CC[C@@H]6C[C@](C)(O)CC[C@@H]6[C@H]5CC[C@@]43C)nc2c1
1.09

Input C[C@@]1(O)CC[C@H]2[C@H](CC[C@@H]3[C@@H]2CC[C@@]2(C)[C@H]3[C@@H]3C[C@@H]3[C@@H]2C(=O)COc2ccc(C#N)cc2F)C1
1.49

Input CC(=O)[C@H]1[C@H]2C[C@H]2[C@H]2[C@@H]3CC[C@@H]4C[C@](C)(O)CC[C@@H]4[C@H]3CC[C@@]21C
1.18

---

# protocol.summary: Pharmacokinetic assay in Balb/c mice (plasma and brain tissue)
# Format: in vivo
# condition.notes: mouse, po; brain tissue, 5 mg/kg p.o., male Balb/c mice; read-out: Peak time tmax
assay.endpoint: Tmax
Returns: string containing the number followed by the unit.

Observe how each entry below is paired with its result.
{"columns": ["compound", "endpoint.result"],
 "data": [
  ["CC[C@@H]1C[C@H](C(=O)Cn2ccc(C(F)(F)F)n2)[C@@]2(C)CC[C@H]3[C@@H](CC[C@@H]4C[C@](C)(O)CC[C@@H]43)[C@H]12 [Example 138]", "30 min"],
  ["C[C@@H]1C[C@H](C(=O)Cn2nccn2)[C@@]2(C)CC[C@H]3[C@@H](CC[C@@H]4C[C@](C)(O)CC[C@@H]43)[C@H]12 [Example 61]", "30 min"],
  ["C[C@@]1(O)CC[C@H]2[C@H](CC[C@@H]3[C@@H]2CC[C@@]2(C)[C@H]3[C@H](C3CC3)C[C@@H]2C(=O)Cn2nccn2)C1 [Example 73]", "30 min"],
  ["C[C@@H]1C[C@H](C(=O)Cn2nc(C#N)cc2C#N)[C@@]2(C)CC[C@H]3[C@@H](CC[C@@H]4C[C@](C)(O)CC[C@@H]43)[C@H]12 [Example 135]", "120 min"],
  ["C[C@@]1(O)CC[C@H]2[C@H](CC[C@@H]3[C@@H]2CC[C@@]2(C)[C@H]3[C@H](C3CC3)C[C@@H]2C(=O)Cn2ncnn2)C1 [Example 146]", "60 min"]
]}

Request the reported Tmax associated with C[C@@]1(O)CC[C@H]2[C@H](CC[C@@H]3[C@@H]2CC[C@@]2(C)[C@H]3[C@@H]3C[C@@H]3[C@@H]2C(=O)Cn2ncnn2)C1 [Example 9]
30 min

Input Cc1nnn(CC(=O)[C@H]2C[C@@H](C3CC3)[C@H]3[C@@H]4CC[C@@H]5C[C@](C)(O)CC[C@@H]5[C@H]4CC[C@@]32C)n1 [Example 74]
60 min

Input C[C@@]1(O)CC[C@H]2[C@H](CC[C@@H]3[C@@H]2CC[C@@]2(C)[C@H]3[C@H](C3CC3)C[C@@H]2C(=O)Cn2nc(C#N)cc2C#N)C1 [Example 143]
120 min

Input CC[C@@H]1C[C@H](C(=O)Cn2ccnn2)[C@@]2(C)CC[C@H]3[C@@H](CC[C@@H]4C[C@](C)(O)CC[C@@H]43)[C@H]12 [Example 140]
30 min

Input C[C@@H]1C[C@H](C(=O)Cn2ncnn2)[C@@]2(C)CC[C@H]3[C@@H](CC[C@@H]4C[C@](C)(O)CC[C@@H]43)[C@H]12 [Example 63]
30 min

Input C[C@@]1(O)CC[C@H]2[C@H](CC[C@@H]3[C@@H]2CC[C@@]2(C)[C@H]3[C@@H]3C[C@@H]3[C@@H]2C(=O)COc2cnc(C(F)(F)F)nc2)C1 [Example 130]
30 min
